Tested on: HCV replicon
PROCEDURE_TEXT: Anti-HCV replicon assay (EC50, luciferase readout)
Format: cell-based, hepatitis C virus
MEASUREMENT_SETUP: Hepatitis C virus, 72 h; human hepatoma Huh-7 cell line harbouring a HCV replicon; 3 days incubation; luciferase signal; read-out: EC50
pEC50: −log10 of the molar value.
PROPERTY_MEASURED: pEC50

Guide cases for pEC50, answers given:
- COMPOUND_STRUCTURE: "N#Cc1cccc(-c2cnc3nc(N)nc(N4CCOCC4)c3n2)c1"
  MEASURED_ON: "HCV replicon"
  pEC50: "5.00 to 6.00"
- COMPOUND_STRUCTURE: "Nc1nc(OCC2CC2)c2nc(-c3ccc(F)cc3)cnc2n1"
  MEASURED_ON: "HCV replicon"
  pEC50: "5.00 to 6.00"
- COMPOUND_STRUCTURE: "CCSc1nc(N)nc2ncc(-c3ccc(F)cc3)nc12"
  MEASURED_ON: "HCV replicon"
  pEC50: "6.00 to 6.52"

Reported HCV replicon pEC50 for item CCOc1nc(N)nc2ncc(-c3ccncc3)nc12 was 6.00 to 6.52

* * *

PROCEDURE_TEXT: CC50 assay (CellTiter-Glo) in Huh-7 HCV replicon cells
Assay type: cell-based, human
MEASUREMENT_SETUP: human, 3 days incubation, 50% cytostatic concentration
PROPERTY_MEASURED: CC50 at 3 days

Examples from the recorded data:
- COMPOUND_STRUCTURE: "CCOc1nc(N)nc2ncc(-c3ccncc3)nc12"
  VAL: "< 10 µM"
- COMPOUND_STRUCTURE: "COc1ccc(-c2cnc3nc(N)nc(N4CCOCC4)c3n2)cn1"
  VAL: "> 20 µM"
- COMPOUND_STRUCTURE: "Nc1nc(N2CCOCC2)c2nc(-c3ccc(F)cc3Cl)cnc2n1"
  VAL: "10 to 20 µM"
- COMPOUND_STRUCTURE: "Nc1nc(N2CCOCC2)c2nc(-c3cccnc3F)cnc2n1"
  VAL: "10 to 20 µM"
- COMPOUND_STRUCTURE: "Nc1nc(N2CCOCC2)c2nc(-c3ccc(C(F)(F)F)cc3C(F)(F)F)cnc2n1"
  VAL: "10 to 20 µM"
- COMPOUND_STRUCTURE: "CCOc1cccc(-c2cnc3nc(N)nc(N4CCOCC4)c3n2)c1"
  VAL: "10 to 20 µM"
- COMPOUND_STRUCTURE: "N#Cc1cccc(-c2cnc3nc(N)nc(N4CCOCC4)c3n2)c1"
  VAL: "> 20 µM"

Turning to the following compound.
Note to self: CC50 at 3 days recorded for Nc1nc(N2CCOCC2)c2nc(-c3c(Cl)cccc3Cl)cnc2n1 was 10 to 20 µM
